Target: Nuclear respiratory factor 1 (Homo sapiens)
Assay: ATG_NRF1_CIS: Attagene CIS-FACTORIAL HepG2 Assay for human Nuclear Respiratory Factor 1 (NRF1) Orphan Gene (AID 2282987)
Details: HepG2 NRF1 cis-element reporter, Attagene multiplex; actives raise or lower the signal
Activity calls are given as the source filed them. Rule for the calls: active = hit-call score of the fitted dose curve at least 0.9, where 1 is the maximum; inactive = score below 0.9.
Possible outcomes: True = active, False = inactive

[
  {
    "compound": "COc1cccc(C(=O)NN(C(=O)c2cc(C)cc(C)c2)C(C)(C)C)c1C",
    "class-name": "False"
  },
  {
    "compound": "CCCCSP(=O)(SCCCC)SCCCC",
    "class-name": "False"
  },
  {
    "compound": "CCNc1nc(Cl)nc(NC(C)(C)C#N)n1",
    "class-name": "False"
  },
  {
    "compound": "CCC(=NOC/C=C/Cl)C1=C(O)CC(C2CCOCC2)CC1=O (stereo unspecified)",
    "class-name": "False"
  },
  {
    "compound": "COP(=O)(OC)OC(Br)C(Cl)(Cl)Br (stereo unspecified)",
    "class-name": "False"
  },
  {
    "compound": "CCCCOC(=O)c1ccccc1C(=O)O",
    "class-name": "False"
  },
  {
    "compound": "CCOP(=S)(OCC)Oc1ccc([N+](=O)[O-])cc1",
    "class-name": "False"
  },
  {
    "compound": "S=C1NCCN1",
    "class-name": "False"
  },
  {
    "compound": "Cc1cc(C2CC2)nc(Nc2ccccc2)n1",
    "class-name": "True"
  },
  {
    "compound": "CCC(CC)Nc1c([N+](=O)[O-])cc(C)c(C)c1[N+](=O)[O-]",
    "class-name": "False"
  },
  {
    "compound": "C[Si](Cn1cncn1)(c1ccc(F)cc1)c1ccc(F)cc1",
    "class-name": "True"
  },
  {
    "compound": "CNC(=O)Oc1cccc2c1OC(C)(C)O2",
    "class-name": "False"
  },
  {
    "compound": "COP(=O)(OC)SCn1c(=O)oc2cc(Cl)cnc21",
    "class-name": "False"
  },
  {
    "compound": "CN1COCN(Cc2cnc(Cl)s2)C1=N[N+](=O)[O-]",
    "class-name": "False"
  },
  {
    "compound": "COc1ccc(C(=CC(=O)N2CCOCC2)c2ccc(Cl)cc2)cc1OC",
    "class-name": "False"
  },
  {
    "compound": "CC(=NC#N)N(C)Cc1ccc(Cl)nc1",
    "class-name": "False"
  },
  {
    "compound": "CNC(=O)ON=C(C)SC",
    "class-name": "False"
  },
  {
    "compound": "CCc1cnc(C2=NC(C)(C(C)C)C(=O)N2)c(C(=O)O)c1 (stereo unspecified)",
    "class-name": "False"
  },
  {
    "compound": "FC(F)C(F)(F)OCC(Cn1cncn1)c1ccc(Cl)cc1Cl (stereo unspecified)",
    "class-name": "True"
  },
  {
    "compound": "CCOP(=S)(OCC)SCCSCC",
    "class-name": "False"
  },
  {
    "compound": "COP(=O)(NC(C)=O)SC (stereo unspecified)",
    "class-name": "False"
  }
]
